- TARGET OR TEST SYSTEM: 2442 CXCR2/CXCR4 chimera
- METHOD DESCRIPTION: flow cytometry, scFv-Fc on transfected 293T cells, FITC anti-human IgG
READOUT: reactivity (MFI of chimeric receptor/MFI of wild type CXCR4 x 100%)
Respond with the bare value in %.

Please look up its reactivity (MFI of chimeric receptor/MFI of wild type CXCR4 x 100%): 33-Fc (Fc fusion, part only; not given: linker and human IgG1 hinge-Fc, not shown: another chain or arm of the molecule; a dimerising Fc or GST; small tags and cut ends) VH: QVTLKESGGGVVQPGRSLRLSCAASGFTFTNYGLHWVRQAPGKGLEWVAVISHDGTKKYYADSVKGRFTISRDSSENTLYLQMNSLRPEDSALYYCARDGGYCSGGRCYSYGMDVWGQGTTVTVSS VL: QSVLTQPPSASGTPGQRVTISCSGSRSNIGSNTVNWYQQLPGTAPKLLIYTNNQRPSGVPDRFSGSKSGTSASLAITGLQAEDEADYYCLSFDSSLTSYVFGTGTKVTVL
0.7
